Ref: patent US20230374025A1

testedSystem: FGFR3 (Homo sapiens)
Construct: purchased Carna 08-135
Sequence (P22607 23-806): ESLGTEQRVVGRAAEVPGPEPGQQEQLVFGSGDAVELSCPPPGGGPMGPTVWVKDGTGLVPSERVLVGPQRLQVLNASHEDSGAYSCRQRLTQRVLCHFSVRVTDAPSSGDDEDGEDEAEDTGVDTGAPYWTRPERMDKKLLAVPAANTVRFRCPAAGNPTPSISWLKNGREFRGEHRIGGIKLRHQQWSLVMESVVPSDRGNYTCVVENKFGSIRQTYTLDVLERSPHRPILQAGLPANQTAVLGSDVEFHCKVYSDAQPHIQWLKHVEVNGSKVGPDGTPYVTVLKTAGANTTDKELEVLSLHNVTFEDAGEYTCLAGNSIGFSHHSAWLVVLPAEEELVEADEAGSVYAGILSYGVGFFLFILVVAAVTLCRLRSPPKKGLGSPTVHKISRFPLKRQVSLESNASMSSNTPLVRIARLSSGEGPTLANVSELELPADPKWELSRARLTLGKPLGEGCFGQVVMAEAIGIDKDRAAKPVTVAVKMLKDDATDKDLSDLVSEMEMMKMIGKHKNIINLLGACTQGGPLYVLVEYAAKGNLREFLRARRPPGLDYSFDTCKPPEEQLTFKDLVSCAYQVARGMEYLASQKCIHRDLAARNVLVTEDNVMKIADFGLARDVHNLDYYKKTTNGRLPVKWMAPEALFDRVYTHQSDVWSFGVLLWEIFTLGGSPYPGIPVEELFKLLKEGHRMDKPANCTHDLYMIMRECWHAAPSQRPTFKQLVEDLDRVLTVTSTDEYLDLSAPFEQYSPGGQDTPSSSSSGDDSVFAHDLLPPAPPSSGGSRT
measurementDescription: Assay II: inhibitory activity against wild-type FGFR (HTRF KinEASE-TK)
Assay type: biochemical
runConditions: ATP 50 μM, substrate TK 1 μM
The following compounds are listed with their measured IC50 values.
Could you give me the number in nM? Just the number is fine.

INSERT INTO assay_data (compound, testedsystem, value) VALUES
  ('CC(Oc1ccc2[nH]nc(-c3nc4c([nH]3)CN(C)C4)c2c1)c1c(Cl)cncc1Cl (centres unmarked) [Compound 11]', 'FGFR3 (Homo sapiens)', 0.6),
  ('CC(Oc1ccc2[nH]nc(-c3nc4c([nH]3)CN(C(=O)N3CCN(C)CC3)CC4)c2c1)c1c(Cl)cncc1Cl (centres unmarked) [Compound 5]', 'FGFR3 (Homo sapiens)', 3.8),
  ('CC(Oc1ccc2[nH]nc(-c3nc4c([nH]3)CN(C(=O)N3CC[C@H](O)C3)C4)c2c1)c1c(Cl)cncc1Cl (some centres unmarked) [Compound 10]', 'FGFR3 (Homo sapiens)', 3.4);

What measured IC50 goes with CC(Oc1ccc2[nH]nc(-c3nc4c([nH]3)CN(C(=O)N3CCOCC3)C4)c2c1)c1c(Cl)cncc1Cl (centres unmarked) [Compound 8] ? 4.5

What measured IC50 goes with CC(Oc1ccc2[nH]nc(-c3nc4c([nH]3)CN(C(=O)N3CCN(C)CC3)C4)c2c1)c1c(Cl)cncc1Cl (centres unmarked) [Compound 1] ? 4.1

---

testedSystem: FGFR2 V564F (Homo sapiens, UniProt P21802, V564F)
Construct: purchased Signalchem F05-12FG
Sequence (P21802 22-821 V564F): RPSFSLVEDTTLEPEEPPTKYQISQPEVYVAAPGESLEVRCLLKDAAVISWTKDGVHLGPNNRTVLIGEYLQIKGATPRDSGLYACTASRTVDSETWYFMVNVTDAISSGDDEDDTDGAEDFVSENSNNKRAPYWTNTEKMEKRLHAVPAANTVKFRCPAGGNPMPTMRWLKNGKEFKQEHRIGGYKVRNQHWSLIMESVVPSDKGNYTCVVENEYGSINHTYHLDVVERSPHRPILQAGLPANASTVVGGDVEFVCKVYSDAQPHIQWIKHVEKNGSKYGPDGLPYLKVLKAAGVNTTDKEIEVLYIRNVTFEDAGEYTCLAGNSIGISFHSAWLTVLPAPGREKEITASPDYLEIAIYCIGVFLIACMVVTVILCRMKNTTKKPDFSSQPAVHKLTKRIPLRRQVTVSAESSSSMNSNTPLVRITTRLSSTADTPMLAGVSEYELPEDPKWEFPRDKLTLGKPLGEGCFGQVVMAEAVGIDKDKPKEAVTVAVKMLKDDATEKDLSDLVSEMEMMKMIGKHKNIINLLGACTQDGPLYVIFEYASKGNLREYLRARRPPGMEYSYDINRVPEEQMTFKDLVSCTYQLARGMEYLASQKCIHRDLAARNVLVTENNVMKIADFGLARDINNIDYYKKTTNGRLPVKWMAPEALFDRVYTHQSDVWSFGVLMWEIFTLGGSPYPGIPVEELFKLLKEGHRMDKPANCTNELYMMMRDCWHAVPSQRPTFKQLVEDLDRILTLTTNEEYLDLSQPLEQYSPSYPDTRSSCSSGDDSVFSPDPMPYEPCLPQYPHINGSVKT
measurementDescription: Assay I: inhibitory activity against FGFR mutants (HTRF KinEASE-TK)
Assay type: biochemical
runConditions: ATP 10 μM, substrate TK 1 μM
Method: Assay I: Determination of Inhibitory Activity Against FGFR Mutants 1. Reagents and Equipment 2.1 Preparation of 1× Kinase Reaction Buffer: […] 10. Reading fluorescence signals at 615 nm (Cryptate) and 665 nm (XL665) with Biotek. 3.1 Calculation of the ratio for each well: the ratio was calculated as 665/615 nm. […] Data were exported from Envision and analyzed manually. The ratios were converted to inhibition rates and IC50 was calculated by Prism GraphPad 6.0 from the inhibition rates. […]
Rule for this label: true (1) means IC50 is less than 0.4 nM; false (0) means IC50 is at least 0.4 nM.

Examples with answers:
INSERT INTO measurements (compound, classassignment) VALUES
  ('CC(Oc1ccc2[nH]nc(-c3nc4c([nH]3)CN(C3CCC(O)CC3)C4)c2c1)c1c(Cl)cncc1Cl (centres unmarked) [Compound 22]', 'false (0)'),
  ('CC(Oc1ccc2[nH]nc(-c3nc4c([nH]3)CN(C)C4)c2c1)c1c(Cl)cncc1Cl (centres unmarked) [Compound 11]', 'false (0)'),
  ('CC(Oc1ccc2[nH]nc(-c3nc4c([nH]3)CN(S(=O)(=O)c3ccn(C)n3)C4)c2c1)c1c(Cl)cncc1Cl (centres unmarked) [Compound 20]', 'false (0)'),
  ('CC(Oc1ccc2[nH]nc(-c3nc4c([nH]3)CN(C(=O)CN3CCC(O)C3)C4)c2c1)c1c(Cl)cncc1Cl (centres unmarked) [Compound 31]', 'true (1)'),
  ('C[C@@H](Oc1ccc2[nH]nc(-c3nc4c([nH]3)CN(C(=O)OC3CCN(C)C3)C4)c2c1)c1c(Cl)cncc1Cl (some centres unmarked) [Compound 55]', 'true (1)');

Please state whether IC50 is below 0.4 nM for C[C@@H](Oc1ccc2[nH]nc(-c3nc4c([nH]3)CN(C3CCN(S(C)(=O)=O)C3)C4)c2c1)c1c(Cl)cncc1Cl (some centres unmarked) [Compound 39] false (0)

Please state whether IC50 is below 0.4 nM for CC(Oc1ccc2[nH]nc(-c3nc4c([nH]3)CN(C(=O)N3CCN(C)CC3)CC4)c2c1)c1c(Cl)cncc1Cl (centres unmarked) [Compound 5] true (1)

Please state whether IC50 is below 0.4 nM for CC(Oc1ccc2[nH]nc(-c3nc4c([nH]3)CN(C(=O)CC#N)C4)c2c1)c1c(Cl)cncc1Cl (centres unmarked) [Compound 27] true (1)

Please state whether IC50 is below 0.4 nM for CC(Oc1ccc2[nH]nc(-c3nc4c([nH]3)CN(C(=O)CN3CCC(C#N)C3)C4)c2c1)c1c(Cl)cncc1Cl (centres unmarked) [Compound 32] false (0)

Please state whether IC50 is below 0.4 nM for C[C@@H](Oc1ccc2[nH]nc(-c3nc4c([nH]3)CN(C(=O)[C@@H]3CCCN3)C4)c2c1)c1c(Cl)cncc1Cl [Compound 44] true (1)

Please state whether IC50 is below 0.4 nM for C[C@@H](Oc1ccc2[nH]nc(-c3nc4c([nH]3)CN(C(=O)N(C)C)C4)c2c1)c1c(Cl)cncc1Cl [Compound 34] true (1)

Please state whether IC50 is below 0.4 nM for C[C@@H](Oc1ccc2[nH]nc(-c3nc4c([nH]3)CN(C3CCN(C)C3)C4)c2c1)c1c(Cl)cncc1Cl (some centres unmarked) [Compound 36] false (0)

Please state whether IC50 is below 0.4 nM for CC(Oc1ccc2[nH]nc(-c3nc4c([nH]3)CN(CC3CCN(C)CC3)C4)c2c1)c1c(Cl)cncc1Cl (centres unmarked) [Compound 2] true (1)
